Hi there, I'd appreciate the recorded Cannabinoid quantity in Sample S201 for every entry that follows.
testDetails: Cannabinoid profile of crystalline product samples by HPLC-DAD-MS analysis (cannabinoid preservation)
experimentalConditions: crystalline product, sodium chloride, with rapid cooling process
One number for each entry, in mg/g.

Below are worked cases with known answers.
compound	valueUnits	Cannabinoid quantity in Sample S201
CCCCCc1cc(O)c2c(c1)OC(C)(CCC=C(C)C)C=C2 (stereo not drawn) [CBC, Cannabichromene]	mg/g	0.84
CCCc1cc(O)c2c(c1)OC(C)(C)[C@@H]1CCC(C)=C[C@@H]21 [THCV, Tetrahydrocannabivarin]	mg/g	0.41
CCCCCc1cc(O)c(C/C=C(\C)CCC=C(C)C)c(O)c1 [CBG, Cannabigerol]	mg/g	0.93
C=C(C)[C@@H]1CCC(C)=C[C@H]1c1c(O)cc(CCCCC)cc1O [CBD, Cannabidiol, reference compound]	mg/g	0.11
CCCCCc1cc(O)c2c(c1)OC(C)(C)[C@@H]1CCC(C)=C[C@@H]21 [Δ9-THC, Δ-9-tetrahydrocannabinol, reference compound]	mg/g	40.04

Consider the compound shown here: CCCCCc1cc(O)c2c(c1)OC(C)(C)c1ccc(C)cc1-2 [CBN, Cannabinol] What is its recorded Cannabinoid quantity in Sample S201?
0.79

---

Hi there, I'd appreciate the recorded Cannabinoid quantity in Sample R103A for every entry that follows.
testDetails: Cannabinoid profile of crystalline product samples by HPLC-DAD-MS analysis (cannabinoid preservation)
experimentalConditions: crystalline product, sucrose, without rapid cooling process, from RB Fat
Give bare numbers, in mg/g.

compound	Cannabinoid quantity in Sample R103A / mg/g
CCCCCc1cc(O)c2c(c1)OC(C)(CCC=C(C)C)C=C2 (stereo not shown)	0.47
CCCCCc1cc(O)c2c(c1)OC(C)(C)c1ccc(C)cc1-2	0.93
CCCCCc1cc(O)c2c(c1)OC(C)(C)[C@@H]1CCC(C)=C[C@@H]21 [Δ9-THC, Δ-9-tetrahydrocannabinol, reference compound]	15.56

Consider the additional compound presented here.
Consider the compound shown here: `CCCCCc1cc(O)c(C/C=C(\C)CCC=C(C)C)c(O)c1` What is its recorded Cannabinoid quantity in Sample R103A?
0.32

---

testDetails: Cannabinoid profile of the cannabis extract by LCMS analysis
experimentalConditions: cannabis extract labeled RB Fat
Hi there, I'd appreciate the recorded Cannabinoid quantity in Sample RB Fat for every entry that follows.
Give bare numbers, in mg/mL.

Below are worked cases with known answers.
molecule	valueUnits	numericReadout
CCCCCc1cc(O)c2c(c1)OC(C)(C)[C@@H]1CCC(C)=C[C@@H]21 [Δ9-THC, Δ-9-tetrahydrocannabinol, reference compound]	mg/mL	12.85
CCCCCc1cc(O)c(C/C=C(\C)CCC=C(C)C)c(O)c1C(=O)O [CBG-A, cannabigerolic acid]	mg/mL	1.22
CCCCCc1cc(O)c2c(c1)OC(C)(C)c1ccc(C)cc1-2 [CBN, Cannabinol]	mg/mL	0.3
CCCCCc1cc(O)c(C/C=C(\C)CCC=C(C)C)c(O)c1 [CBG, Cannabigerol]	mg/mL	0.69
CCCc1cc2c(c(O)c1C(=O)O)C1C=C(C)CCC1C(C)(C)O2 (stereo not drawn) [THCV-A]	mg/mL	0.26

State recorded Cannabinoid quantity in Sample RB Fat for all listed molecules.
1. C=C(C)[C@@H]1CCC(C)=C[C@H]1c1c(O)cc(CCCCC)c(C(=O)O)c1O [CBD-A, Cannabidiolic acid]
2. CCCCCc1cc2c(c(O)c1C(=O)O)C1C3C(CCC3(C)O2)C1(C)C (stereo not drawn) [CBL-A, cannabicyclol acid]
3. CCCCCc1cc(O)c2c(c1)OC(C)(CCC=C(C)C)C=C2 (stereo not drawn) [CBC, Cannabichromene]
4. CCCCCc1cc2c(c(O)c1C(=O)O)[C@@H]1C=C(C)CC[C@H]1C(C)(C)O2 [THC-A, Tetrahydrocannabinolic acid]

1. 0.12
2. 0.38
3. 0.63
4. 37.07

---

testDetails: Cannabinoid profile of crystalline product samples by HPLC-DAD-MS analysis (cannabinoid preservation)
experimentalConditions: control crystalline product, sucrose, without rapid cooling process
Hi there, I'd appreciate the recorded Cannabinoid quantity in Control R104 for every entry that follows.
Give bare numbers, in mg/g.

Below are worked cases with known answers.
compound	Cannabinoid quantity in Control R104, mg/g
C=C(C)[C@@H]1CCC(C)=C[C@H]1c1c(O)cc(CCCCC)cc1O [CBD, Cannabidiol, reference compound]	0.17
CCCCCc1cc(O)c2c(c1)OC(C)(C)[C@@H]1CCC(C)=C[C@@H]21 [Δ9-THC, Δ-9-tetrahydrocannabinol, reference compound]	35.37
CCCCCc1cc(O)c(C/C=C(\C)CCC=C(C)C)c(O)c1	0.82
CCCCCc1cc(O)c2c(c1)OC(C)(C)[C@@H]1CC=C(C)C[C@@H]21 [Δ8-THC, Δ-8-tetrahydrocannabinol]	1.7

Consider the compound shown here: CCCCCc1cc(O)c2c(c1)OC(C)(CCC=C(C)C)C=C2 (stereo not drawn) What is its recorded Cannabinoid quantity in Control R104?
0.8

---

testDetails: Cannabinoid profile of crystalline product samples by HPLC-DAD-MS analysis (cannabinoid preservation)
experimentalConditions: crystalline product, sucrose, without rapid cooling process, from RB Fat
readoutType: Cannabinoid quantity in Sample R103A (mg/g)
Give bare numbers, in mg/g.

Below are worked cases with known answers.
compound	readoutType	numericReadout
CCCCCc1cc2c(c(O)c1C(=O)O)[C@@H]1C=C(C)CC[C@H]1C(C)(C)O2 [THC-A, Tetrahydrocannabinolic acid]	Cannabinoid quantity in Sample R103A	7.13
CCCc1cc(O)c2c(c1)OC(C)(C)[C@@H]1CCC(C)=C[C@@H]21 [THCV, Tetrahydrocannabivarin]	Cannabinoid quantity in Sample R103A	0.14
CCCc1cc2c(c(O)c1C(=O)O)C1C=C(C)CCC1C(C)(C)O2 (stereo not shown) [THCV-A]	Cannabinoid quantity in Sample R103A	0.05

Consider the additional compound presented here.
Consider the compound shown here: CCCCCc1cc2c(c(O)c1C(=O)O)C1C3C(CCC3(C)O2)C1(C)C (stereo not shown) [CBL-A, cannabicyclol acid] What is its recorded Cannabinoid quantity in Sample R103A?
0.46

---

testDetails: Cannabinoid profile of crystalline product samples by HPLC-DAD-MS analysis (cannabinoid preservation)
experimentalConditions: crystalline product, sucrose, with rapid cooling process; original test
Hi there, I'd appreciate the recorded Cannabinoid quantity in Sample R104A for every entry that follows.

compound	Cannabinoid quantity in Sample R104A
CCCCCc1cc(O)c(C/C=C(\C)CCC=C(C)C)c(O)c1	1.34 mg/g

Consider the compound shown here: CCCCCc1cc(O)c2c(c1)OC(C)(C)[C@@H]1CCC(C)=C[C@@H]21 [Δ9-THC, Δ-9-tetrahydrocannabinol, reference compound] What is its recorded Cannabinoid quantity in Sample R104A?
57.13 mg/g

---

testDetails: Cannabinoid profile of crystalline product samples by HPLC-DAD-MS analysis (cannabinoid preservation)
experimentalConditions: crystalline product, sucrose, with rapid cooling process; retest
Hi there, I'd appreciate the recorded Cannabinoid quantity in (Retest) Sample R104A for every entry that follows.
One number for each entry, in mg/g.

Below are worked cases with known answers.
compound	numericReadout
C=C(C)[C@@H]1CCC(C)=C[C@H]1c1c(O)cc(CCCCC)cc1O [CBD, Cannabidiol, reference compound]	0.15
CCCc1cc(O)c2c(c1)OC(C)(C)[C@@H]1CCC(C)=C[C@@H]21 [THCV, Tetrahydrocannabivarin]	0.52

Consider the additional compound presented here.
Consider the compound shown here: CCCCCc1cc(O)c2c(c1)OC(C)(C)[C@@H]1CCC(C)=C[C@@H]21 [Δ9-THC, Δ-9-tetrahydrocannabinol, reference compound] What is its recorded Cannabinoid quantity in (Retest) Sample R104A?
57.45

---

testDetails: Cannabinoid profile of crystalline product samples by HPLC-DAD-MS analysis (cannabinoid preservation)
experimentalConditions: crystalline product, sucrose, with rapid cooling process; original test
readoutType: Cannabinoid quantity in Sample R104A (mg/g)
Give bare numbers, in mg/g.

Below are worked cases with known answers.
compound	valueUnits	Cannabinoid quantity in Sample R104A
C=C(C)[C@@H]1CCC(C)=C[C@H]1c1c(O)cc(CCCCC)cc1O [CBD, Cannabidiol, reference compound]	mg/g	0.08
CCCc1cc(O)c2c(c1)OC(C)(C)[C@@H]1CCC(C)=C[C@@H]21 [THCV, Tetrahydrocannabivarin]	mg/g	0.54
CCCCCc1cc(O)c2c(c1)OC(C)(C)c1ccc(C)cc1-2	mg/g	1.17

Consider the additional compound presented here.
Consider the compound shown here: CCCCCc1cc(O)c2c(c1)OC(C)(CCC=C(C)C)C=C2 (stereo not drawn) What is its recorded Cannabinoid quantity in Sample R104A?
1.18

---

Hi there, I'd appreciate the recorded Cannabinoid quantity in Sample R103B for every entry that follows.
testDetails: Cannabinoid profile of crystalline product samples by HPLC-DAD-MS analysis (cannabinoid preservation)
experimentalConditions: crystalline product, sucrose, without rapid cooling process, from RB Fat
Could you kindly put the unit after your number?

compound	Cannabinoid quantity in Sample R103B
CCCCCc1cc(O)c2c(c1)OC(C)(CCC=C(C)C)C=C2 (stereo not shown) [CBC, Cannabichromene]	0.45 mg/g
CCCCCc1cc(O)c2c(c1)OC(C)(C)c1ccc(C)cc1-2 [CBN, Cannabinol]	1 mg/g
CCCCCc1cc(O)c2c(c1)OC(C)(C)[C@@H]1CCC(C)=C[C@@H]21 [Δ9-THC, Δ-9-tetrahydrocannabinol, reference compound]	16.18 mg/g
CCCc1cc(O)c2c(c1)OC(C)(C)[C@@H]1CCC(C)=C[C@@H]21 [THCV, Tetrahydrocannabivarin]	0.2 mg/g
CCCCCc1cc(O)c(C/C=C(\C)CCC=C(C)C)c(O)c1 [CBG, Cannabigerol]	0.26 mg/g

State recorded Cannabinoid quantity in Sample R103B for all listed compounds.
1. CCCCCc1cc2c(c(O)c1C(=O)O)C1C3C(CCC3(C)O2)C1(C)C (stereo not shown) [CBL-A, cannabicyclol acid]
2. CCCCCc1cc2c(c(O)c1C(=O)O)[C@@H]1C=C(C)CC[C@H]1C(C)(C)O2 [THC-A, Tetrahydrocannabinolic acid]

1: 0.35 mg/g; 2: 6.18 mg/g
